- TESTED_SYSTEM: T1, human EpCAM (epithelial cell adhesion/activating molecule) (human, UniProt P16422 24-314)
- T1 sequence: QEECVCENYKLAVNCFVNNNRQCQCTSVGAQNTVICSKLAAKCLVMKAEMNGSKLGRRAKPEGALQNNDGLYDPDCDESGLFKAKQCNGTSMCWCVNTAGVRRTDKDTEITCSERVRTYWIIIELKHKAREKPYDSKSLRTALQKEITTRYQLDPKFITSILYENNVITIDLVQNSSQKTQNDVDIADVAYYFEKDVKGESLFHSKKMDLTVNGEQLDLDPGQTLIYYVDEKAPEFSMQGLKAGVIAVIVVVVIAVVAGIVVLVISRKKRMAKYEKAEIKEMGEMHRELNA
- TEST: cell-based or functional assay
REPORTED_ENDPOINT: % Annexin V/PI-positive cells, T-47D, 3.0 µg/ml mAb (%)
Write down the numeric answer in % and omit the unit.

Please give the measured % Annexin V/PI-positive cells, T-47D, 3.0 µg/ml mAb for this binder: murine monoclonal antibody 12H8 (antibody, mouse IgG2a, V domains shown, Mouse IgG2a, kappa, from hybridoma; also called m342-12H8.3; m12H8) VH: QIQLVQSGPELKKPGETVKISCKTSGYTFTDYSMHWVNQAPGKGLKWMGWINTETGEPTYTDDFKGRFAFSLETSASTAYLQINNLKNEDTATYFCARTAVYWGQGTTLTVSS VL: DIQMTQSPSSLSASLGERVSLTCRASQEISGSLSWLQQKPDGTIKRLIYAASTLNSGVPKRFSGRRSGSDYSLTISSLESEDFVDYYCLQYSSYPWSFGGGTKLEIKR
54

Please give the measured % Annexin V/PI-positive cells, T-47D, 3.0 µg/ml mAb for this binder: murine monoclonal antibody 6D11 (antibody, mouse IgG1, V domains shown, Mouse IgG1, kappa, from hybridoma; also called m338-6D11.8) VH: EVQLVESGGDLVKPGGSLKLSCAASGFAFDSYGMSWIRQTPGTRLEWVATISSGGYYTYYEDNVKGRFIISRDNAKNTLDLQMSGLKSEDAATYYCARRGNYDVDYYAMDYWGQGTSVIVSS VL: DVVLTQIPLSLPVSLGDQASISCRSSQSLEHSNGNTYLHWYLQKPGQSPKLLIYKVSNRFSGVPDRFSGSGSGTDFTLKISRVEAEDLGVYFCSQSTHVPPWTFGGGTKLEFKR
40

Please give the measured % Annexin V/PI-positive cells, T-47D, 3.0 µg/ml mAb for this binder: murine monoclonal antibody 2D11 (antibody, mouse IgG1, V domains shown, Mouse IgG1, kappa, from hybridoma; also called m322-2D11.19) VH: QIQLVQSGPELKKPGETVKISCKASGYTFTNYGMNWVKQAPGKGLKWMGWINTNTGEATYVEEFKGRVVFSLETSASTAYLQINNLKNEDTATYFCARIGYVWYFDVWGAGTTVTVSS VL: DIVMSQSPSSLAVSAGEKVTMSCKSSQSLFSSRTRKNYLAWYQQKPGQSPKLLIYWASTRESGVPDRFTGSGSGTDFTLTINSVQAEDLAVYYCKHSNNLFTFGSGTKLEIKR
48

Attribution: patent US20110165161A1
